# reported IC50; entries follow
Molecular target: urokinase (UK) (Homo sapiens)
Assay: fibrin-plate method, plasmin formation induced by urokinase
Settings: fibrin plate; hydrolysed area reduced to 50% of control
Square brackets hold non-standard residues; d marks the D form. Peptide text beside a SMILES is read from it. * marks the point of attachment. dCba = N[C@H](CC1CCC1)C(=O)O; Moc = COC(=O)*
Field format: number, assumed µM, no unit text.

Below: 2 molecules and their reported IC50.
CCOC(=O)N[C@H](CC1CCCC1)C(=O)N1CCC[C@H]1C(=O)N[C@H](C=O)CCCNC(=N)N; 46
COC(=O)N[C@H](CC1CCC1)C(=O)N1CCC[C@H]1C(=O)N[C@H](C=O)CCCNC(=N)N [Example 2] (Moc-[dCba]-Pro-Arg-aldehyde); 153

Please find the next molecule below.
The molecule listed as CCOC(=O)N[C@H](CC1CCC1)C(=O)N1CCC[C@H]1C(=O)N[C@H](C=O)CCCNC(=N)N has a reported IC50 of 120
